A short record of Ki observed with PRMT5/MEP50 complex (Homo sapiens) follows.
Sequence (O14744 whole entry): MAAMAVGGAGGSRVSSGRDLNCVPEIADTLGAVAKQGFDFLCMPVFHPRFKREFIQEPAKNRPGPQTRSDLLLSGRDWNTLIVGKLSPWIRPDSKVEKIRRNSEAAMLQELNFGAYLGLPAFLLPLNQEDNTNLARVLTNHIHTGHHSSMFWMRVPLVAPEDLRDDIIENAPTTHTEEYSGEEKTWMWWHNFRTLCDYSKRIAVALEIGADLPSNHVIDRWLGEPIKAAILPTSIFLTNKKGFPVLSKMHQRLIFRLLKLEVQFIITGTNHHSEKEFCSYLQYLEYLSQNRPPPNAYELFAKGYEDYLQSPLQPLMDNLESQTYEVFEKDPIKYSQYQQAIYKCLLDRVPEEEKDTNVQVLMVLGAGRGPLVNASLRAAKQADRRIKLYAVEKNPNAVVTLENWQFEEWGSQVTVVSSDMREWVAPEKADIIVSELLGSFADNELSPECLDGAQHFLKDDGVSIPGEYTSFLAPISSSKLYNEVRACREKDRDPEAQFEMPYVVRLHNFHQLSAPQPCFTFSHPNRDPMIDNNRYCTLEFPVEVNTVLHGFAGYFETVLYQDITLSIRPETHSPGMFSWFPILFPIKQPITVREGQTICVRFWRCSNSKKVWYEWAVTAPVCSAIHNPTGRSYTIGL
Sequence (Q9BQA1 whole entry, further chain): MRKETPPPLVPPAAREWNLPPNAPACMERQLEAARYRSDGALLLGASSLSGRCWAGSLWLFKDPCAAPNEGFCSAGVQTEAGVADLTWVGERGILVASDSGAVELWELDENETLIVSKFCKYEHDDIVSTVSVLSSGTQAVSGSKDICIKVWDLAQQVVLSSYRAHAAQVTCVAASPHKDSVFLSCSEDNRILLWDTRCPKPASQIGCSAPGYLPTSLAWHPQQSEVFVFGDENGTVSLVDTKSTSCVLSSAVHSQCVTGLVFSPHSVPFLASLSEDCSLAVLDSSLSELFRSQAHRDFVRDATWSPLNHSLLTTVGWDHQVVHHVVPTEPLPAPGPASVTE
Endpoint: Ki (nM)

Here are 2 molecules together with their reported answers.
Nc1nc2ccc(C(=O)N3CCCC3c3ccc(C(F)(F)F)cn3)cc2c2c1COC2 (stereo not drawn) = 184
C[C@H](c1ncccn1)N(Cc1ccc(C(F)(F)F)cn1)C(=O)c1ccc2nc(N)ccc2c1 = 0.6

I. C[C@H](c1ncccn1)N(Cc1ccc(C(F)(F)F)cn1)C(=O)c1ccc2nc(N)c(Cl)cc2c1
II. CN(Cc1ccc(C(F)(F)F)cn1)C(=O)c1ccc2nc(N)c3c(c2c1)COC3
III. C[C@@H]1OCc2c1c(N)nc1cnc(C(=O)N3CCOC[C@@H]3c3ccc(C(F)(F)F)cc3)cc21
IV. Nc1nc2ccc(C(=O)N3CCOC[C@H]3c3ccc(C(F)(F)F)cn3)cc2c2c1COC2
V. Nc1nc2cnc(C(=O)N3CCC(F)(F)C[C@@H]3c3ccc(C(F)(F)F)cc3)cc2c2c1COC2
Place the items in sequence of falling Ki. Answer by writing out the labels in the requested order. IV, III, V, I, II
(IV: 182 nM, III: 1.1 nM, V: 0.4 nM, I: 0.2 nM, II: 0.1 nM)

* * *

Procedure Summary: Metabolic stability in human hepatocytes assessed as intrinsic clearance measured per 10^6 cells
Format: ADME, cell-based, Hepatocyte
Condition Label: read-out: CLH
Recorded hepatocyte CLint, one value per entry.
# unit: µL/min/1e6 cells | format: bare number

Cc1cc2cc(C(=O)N(Cc3ccc(C(F)(F)F)cn3)[C@H](C)c3ncccn3)ccc2nc1N = 9

Query molecule follows.
Read off the recorded hepatocyte CLint for Nc1nc2cnc(C(=O)N3CCOC[C@@H]3c3ccc(C(F)(F)F)cc3)cc2c2c1COC2 6

* * *

Procedure Summary: Unbound clearance in CD-1 mouse at 1 mg/kg, iv
Type: ADME, organism-based
Condition Label: in vivo
Endpoint: CL free (mL/min/kg)

Examples with answers:
CN(Cc1ccc(C(F)(F)F)cn1)C(=O)c1ccc2nc(N)c3c(c2c1)COC3 = 40
CCN(Cc1ccc(C(F)(F)F)cn1)C(=O)c1ccc2nc(N)c3c(c2c1)COC3 = 96.7
Nc1nc2ccc(C(=O)N3CCOC[C@@H]3c3ccc(C(F)(F)F)nc3)cc2c2c1COC2 = 25
Cc1cc2cc(C(=O)N(Cc3ccc(C(F)(F)F)cn3)[C@H](C)c3ncccn3)ccc2nc1N = 317
C[C@H]1OCc2c1c(N)nc1cnc(C(=O)N3CCOC[C@@H]3c3ccc(C(F)(F)F)cc3)cc21 = 147

1. Nc1nc2ccc(C(=O)N3CCOC[C@@H]3c3ccc(C(F)(F)F)cc3)cc2c2c1COC2
2. Nc1nc2ccc(C(=O)N3CCOC[C@@H]3c3ccc(C(F)(F)F)cn3)cc2c2c1COC2
3. C[C@@H]1COC[C@H](c2ccc(C(F)(F)F)cc2)N1C(=O)c1cc2c3c(c(N)nc2cn1)COC3
Returns the items ordered by CL free, from maximum to minimum. I would appreciate it if you listed the labels in the requested order. 3, 1, 2

* * *

Procedure Summary: Solubility of compound in PBS buffer at pH 7.4
Endpoint: solubility (µM)
Dear colleague, please return just the value in µM, with no unit written.

Give me measured solubility, please, for this compound: Nc1nc2cnc(C(=O)N3CCOC[C@@H]3c3ccc(C(F)(F)F)cc3)cc2c2c1COC2 257

* * *

Procedure Summary: Unbound CSF-to-plasma concentration ratio in male Sprague-Dawley rat at 25 mg/kg, po administered as single dose
Assay type: ADME, organism-based
Endpoint: Kp uu
Would you mind answering with just the numeric figure?

Return reported Kp uu. Input compound: Nc1nc2cnc(C(=O)N3CCOC[C@@H]3c3ccc(C(F)(F)F)cc3)cc2c2c1COC2 0.24

* * *

Procedure Summary: Clearance in Beagle dog at 0.5 mg/kg, iv
Condition Label: in vivo
Endpoint: clearance (mL/min/kg)
State the answer as a number, implicitly in mL/min/kg.

For the compound Cc1cc2cc(C(=O)N(Cc3ccc(C(F)(F)F)cn3)[C@H](C)c3ncccn3)ccc2nc1N , report clearance. 25

* * *

Procedure Summary: Metabolic stability in rat hepatocytes assessed as intrinsic clearance measured per 10^6 cells
Type: ADME, cell-based, Hepatocyte
Condition Label: read-out: CLH
Endpoint: hepatocyte CLint (µL/min/1e6 cells)
Kindly provide the numeric value in µL/min/1e6 cells only, without the unit symbol.

Cc1cc2cc(C(=O)N(Cc3ccc(C(F)(F)F)cn3)[C@H](C)c3ncccn3)ccc2nc1N = 11

Consider the compound Nc1nc2cnc(C(=O)N3CCOC[C@@H]3c3ccc(C(F)(F)F)cc3)cc2c2c1COC2 and give its recorded hepatocyte CLint. 31

* * *

Procedure Summary: Unbound CSF-to-plasma concentration ratio in female Sprague-Dawley rat at 75 mg/kg, po administered as single dose
Format: ADME, organism-based
Endpoint: Kp uu
# output: bare number, no unit

Input Nc1nc2cnc(C(=O)N3CCOC[C@@H]3c3ccc(C(F)(F)F)cc3)cc2c2c1COC2 , output reported Kp uu. 0.2

* * *

Listing of recorded hepatocyte CLint by entry.
Procedure Summary: Metabolic stability in mouse hepatocytes assessed as intrinsic clearance measured per 10^6 cells
Type: ADME, cell-based, Hepatocyte
Condition Label: read-out: CLH
Give the number; µL/min/1e6 cells is assumed, so skip it.

Cc1cc2cc(C(=O)N(Cc3ccc(C(F)(F)F)cn3)[C@H](C)c3ncccn3)ccc2nc1N = 18

Now consider a different compound.
Identify measured hepatocyte CLint associated with Nc1nc2cnc(C(=O)N3CCOC[C@@H]3c3ccc(C(F)(F)F)cc3)cc2c2c1COC2 13

* * *

Procedure Summary: Clearance in CD-1 mouse at 1 mg/kg, iv
Condition Label: in vivo
Endpoint: clearance (mL/min/kg)

Solved cases (3 shown):
C[C@H]1OCc2c1c(N)nc1cnc(C(=O)N3CCOC[C@@H]3c3ccc(C(F)(F)F)cc3)cc21 = 13.3
Nc1nc2ccc(C(=O)N3CCOC[C@@H]3c3ccc(C(F)(F)F)nc3)cc2c2c1COC2 = 6.67
CN(Cc1ccc(C(F)(F)F)cn1)C(=O)c1ccc2nc(N)c3c(c2c1)COC3 = 8.33

a. CCN(Cc1ccc(C(F)(F)F)cn1)C(=O)c1ccc2nc(N)c3c(c2c1)COC3
b. C[C@@H]1COC[C@H](c2ccc(C(F)(F)F)cc2)N1C(=O)c1cc2c3c(c(N)nc2cn1)COC3
c. C[C@H](c1ncccn1)N(Cc1ccc(C(F)(F)F)cn1)C(=O)c1ccc2nc(N)c3c(c2c1)COC3
d. Nc1nc2ccc(C(=O)N3CCOC[C@@H]3c3ccc(C(F)(F)F)cn3)cc2c2c1COC2
Hi! Can you put these in order of clearance, lowest number first? // list labels; follow requested order d, a, b, c

* * *

System Under Test: Voltage-gated inwardly rectifying potassium channel KCNH2 (Homo sapiens, UniProt Q12809)
Sequence (Q12809 whole entry): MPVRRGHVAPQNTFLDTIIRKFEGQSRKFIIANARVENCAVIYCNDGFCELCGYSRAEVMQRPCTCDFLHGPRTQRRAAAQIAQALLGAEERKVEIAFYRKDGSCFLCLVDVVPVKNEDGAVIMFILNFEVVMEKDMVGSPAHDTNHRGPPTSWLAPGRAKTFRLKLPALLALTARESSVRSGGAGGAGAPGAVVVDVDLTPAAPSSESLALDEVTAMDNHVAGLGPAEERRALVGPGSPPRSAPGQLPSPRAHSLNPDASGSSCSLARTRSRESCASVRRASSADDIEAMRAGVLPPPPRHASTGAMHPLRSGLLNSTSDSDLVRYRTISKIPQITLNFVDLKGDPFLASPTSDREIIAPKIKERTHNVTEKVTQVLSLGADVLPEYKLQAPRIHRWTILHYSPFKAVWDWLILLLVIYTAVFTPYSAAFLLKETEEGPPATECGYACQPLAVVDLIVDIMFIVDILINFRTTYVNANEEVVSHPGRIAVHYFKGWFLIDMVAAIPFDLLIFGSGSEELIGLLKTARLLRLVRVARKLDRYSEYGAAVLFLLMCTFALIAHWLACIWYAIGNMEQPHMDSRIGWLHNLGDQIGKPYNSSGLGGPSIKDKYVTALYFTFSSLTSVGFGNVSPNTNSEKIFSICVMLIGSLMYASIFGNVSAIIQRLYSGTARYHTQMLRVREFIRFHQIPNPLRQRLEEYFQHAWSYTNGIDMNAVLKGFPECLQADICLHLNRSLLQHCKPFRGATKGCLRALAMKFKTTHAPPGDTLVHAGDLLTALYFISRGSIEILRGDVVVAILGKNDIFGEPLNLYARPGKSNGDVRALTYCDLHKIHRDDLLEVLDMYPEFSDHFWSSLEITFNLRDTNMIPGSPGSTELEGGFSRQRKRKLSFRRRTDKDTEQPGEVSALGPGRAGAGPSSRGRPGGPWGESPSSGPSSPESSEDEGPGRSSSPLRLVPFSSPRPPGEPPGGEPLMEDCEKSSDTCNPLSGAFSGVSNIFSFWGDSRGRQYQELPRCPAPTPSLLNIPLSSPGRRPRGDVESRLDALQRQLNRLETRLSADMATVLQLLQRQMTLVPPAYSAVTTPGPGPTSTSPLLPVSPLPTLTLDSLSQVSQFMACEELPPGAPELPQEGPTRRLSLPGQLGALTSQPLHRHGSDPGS
Procedure Summary: Inhibition of human ERG by QPatch clamp method
Endpoint: IC50

Provide measured IC50 value, entry: Nc1nc2cnc(C(=O)N3CCOC[C@@H]3c3ccc(C(F)(F)F)cc3)cc2c2c1COC2 > 30 µM

* * *

Procedure Summary: in vivo
Condition Label: CD-1, mouse, iv, 1 mg/kg
Endpoint: Vd (L/kg)

CCN(Cc1ccc(C(F)(F)F)cn1)C(=O)c1ccc2nc(N)c3c(c2c1)COC3 = 1.5
C[C@H](c1ncccn1)N(Cc1ccc(C(F)(F)F)cn1)C(=O)c1ccc2nc(N)c3c(c2c1)COC3 = 1.4
CN(Cc1ccc(C(F)(F)F)cn1)C(=O)c1ccc2nc(N)c3c(c2c1)COC3 = 0.9
Nc1nc2ccc(C(=O)N3CCOC[C@@H]3c3ccc(C(F)(F)F)cn3)cc2c2c1COC2 = 1.2

1. Nc1nc2ccc(C(=O)N3CCOC[C@@H]3c3ccc(C(F)(F)F)nc3)cc2c2c1COC2
2. C[C@H]1OCc2c1c(N)nc1cnc(C(=O)N3CCOC[C@@H]3c3ccc(C(F)(F)F)cc3)cc21
Select one: 1 or 2 . Criterion: greater recorded Vd. # respond with the chosen item's label 2
(2: 1.8 L/kg, 1: 1 L/kg)

A. Nc1nc2ccc(C(=O)N3CCOC[C@@H]3c3ccc(C(F)(F)F)cc3)cc2c2c1COC2
B. C[C@@H]1COC[C@H](c2ccc(C(F)(F)F)cc2)N1C(=O)c1cc2c3c(c(N)nc2cn1)COC3
Hi there, can you help? I need to know whether A or B has lower measured Vd. Refer to your chosen entry by its label in the reply. A

* * *

Procedure Summary: Solubility of compound in SIF at pH 6.8
Endpoint: solubility (µM)
# output: bare number, implied unit µM

Answer with reported solubility of Nc1nc2cnc(C(=O)N3CCOC[C@@H]3c3ccc(C(F)(F)F)cc3)cc2c2c1COC2 335

* * *

System Under Test: CYP3A4 (Homo sapiens, UniProt P08684)
Sequence (P08684 whole entry): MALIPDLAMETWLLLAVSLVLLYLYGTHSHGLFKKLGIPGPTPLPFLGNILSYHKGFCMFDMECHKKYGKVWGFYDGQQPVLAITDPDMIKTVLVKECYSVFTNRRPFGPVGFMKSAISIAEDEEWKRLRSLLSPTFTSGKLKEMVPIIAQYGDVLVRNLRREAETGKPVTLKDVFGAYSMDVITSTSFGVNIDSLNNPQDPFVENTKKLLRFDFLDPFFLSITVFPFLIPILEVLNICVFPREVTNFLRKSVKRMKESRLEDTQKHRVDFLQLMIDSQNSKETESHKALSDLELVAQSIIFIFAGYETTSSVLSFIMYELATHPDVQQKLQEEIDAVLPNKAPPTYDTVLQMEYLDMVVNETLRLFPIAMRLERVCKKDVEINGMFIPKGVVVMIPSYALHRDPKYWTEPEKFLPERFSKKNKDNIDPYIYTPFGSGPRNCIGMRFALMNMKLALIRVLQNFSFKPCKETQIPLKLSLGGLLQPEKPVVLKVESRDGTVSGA
Procedure Summary: in vitro
Condition Label: human liver microsomes, probe midazolam
Endpoint: inhibition at 30 min, 10 µM

CCN(Cc1ccc(C(F)(F)F)cn1)C(=O)c1ccc2nc(N)c3c(c2c1)COC3 = < 20%
Nc1nc2ccc(C(=O)N3CCOC[C@H]3c3ccc(C(F)(F)F)cn3)cc2c2c1COC2 = < 20%
C[C@H](c1ncccn1)N(Cc1ccc(C(F)(F)F)cn1)C(=O)c1ccc2nc(N)c(Cl)cc2c1 = 25%
C[C@H](c1ncccn1)N(Cc1ccc(C(F)(F)F)cn1)C(=O)c1cnc2nc(N)c3c(c2c1)COC3 = < 1%
C[C@@H]1COC[C@H](c2ccc(C(F)(F)F)cc2)N1C(=O)c1cc2c3c(c(N)nc2cn1)COC3 = < 20%

Give a short answer stating reported inhibition at 30 min, 10 µM for Nc1nc2cnc(C(=O)N3CCOC[C@@H]3c3ccc(C(F)(F)F)cc3)cc2c2c1COC2 . < 20%

Retrieve inhibition at 30 min, 10 µM measured for C[C@H](c1ncccn1)N(Cc1ccc(C(F)(F)F)cn1)C(=O)c1ccc2nc(N)c3c(c2c1)COC3 and print it. 4%
